Test system: MS2 coat protein
Assay Comment: apparent KD of MS2 coat protein; designed switch direction (-1 OFF switch, 1 ON switch): -1; higher = weaker reporter binding
Study Conditions: input ligand: microRNA oligo, concentration not stated
# cutoff 40 nM applies to apparent KD of MS2 coat protein; >= gives TRUE, < gives FALSE

Sequence	Discrete Label
GUACCAAUUGUAGGAUAUGGAUCCGAUUAGGAUCCAGAAGGACAUGAGGAUCACCCAUGUACAUGAGGAUCACCCAUUAGGUAC [Fiskers ExNg1 - 12] (Eterna round: R96, puzzle: Exclusion NG 1)	FALSE
UUGGUUGUGGUAGGAUAUCCGUUGGAAACCGUCGGAGAAGGACCACAGUCACUGGGUCUUUGUCUGGUGGACUGGAAUCACCAU [pwkr exNG1 F6.21] (Eterna round: R96, puzzle: Exclusion NG 1)	TRUE
AUAGUAUAGCAAGGAUAUCGAUUUAGUUUGUUACGAGAAGGUGCUUUAGUUUAUACCUCUUGUUUACAUGAGGAUCACCCAUGU [JR_ExcNG1_Sub048] (Eterna round: R96, puzzle: Exclusion NG 1)	FALSE
UCGCUCCGUGUAGGAUAUCGCCGUUCCACUCGGCGAGAAGGACAUGAGGAUCACCCAUGUAUGUUAUUAUCACGUGUGGCGCGC [Design 53] (Eterna round: R96, puzzle: Exclusion NG 1)	FALSE

Now turn to the next sequence.
Test whether the sequence GCAGAAAGUGUAGGAUAUAUAAAUUAGCGGAAACGCAAUACAUGAGGAUCACCCAUGUUUCCUCAAUAGAAGGGCAAAAGCUGC [EXNG2 V2 e] (Eterna round: R96, puzzle: Exclusion NG 2) records apparent KD of MS2 coat protein of 40 nM or higher.
FALSE

###

System: K4 kissing-loop RNA reporter;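 note: bound reporter read as fluorescence of individual clusters on recovered sequencing chips by microscopy, with normalized cluster intensities fitted with a binding model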
Assay Comment: apparent KD of K4 kissing-loop reporter; higher = weaker reporter binding
Study Conditions: Eterna round: R107; input ligand: arginine 13.2 mM
Outcome Measure: apparent KD of K4 kissing-loop reporter (nM)
Could you give me the number in nM? Just the number is fine.

Some entries whose results are on file:
Sequence	apparent KD of K4 kissing-loop reporter (nM)
AAUGUACAGGGAAGGAGCGUCGUCCAGUGAUGUUGGAGUUAAAUACCAGUGAUGUUGGUUAGACAGGUAGGUCGCCCUAAAGUGC [Exclusion Arginine B Gf 3]	80.2
CGCGCUGGUUGAGAGGUUGGCGCGAAUGAUACCAGUAUAUAAGAAUACCCUUGGCAGCAUAAGAAAGAUAUAGUGAUGUUGUAUA [SSTheophA.H]	344
AUAUUUAUUUAGUCACUUUUCAUAUUAUGUCAGGAUAUCGUAUUUUCGAGAAGGGACUCAUGCUAGUGAUGUUAGCUAUUUCUCA [JR_Nu3_ExcFMNA_Sub022]	170
AGUGAUAUAUGAGGAUAUGGGUUAAUUAGUGAGUUAUUUUUAGUGUUGUUUGAUUAGUGAUGUUAUUUAGAAGGCGUGAGUGAUG [awwswmjmullin]	75
GGUAGCAUGGCGGCCGCCACUGAGCAAGUGAUGUUUGCCUCCCUACCCUAGUGUCGAGAGUAUAUCAGGACCGGGCCAUGCUACC	132

Request the reported apparent KD of K4 kissing-loop reporter associated with ACCCUACUCGGGCGGCUAUACAGUUAAGCUAAGGAUAUGUAUUCGUACAGAAGGUAGAAGAAGCCGAGUGAUGUUCGACACGCCC [theeternabot_sameState_KL_FMN_A_24]
386

How about GGUGACAACCAGAGGUGAUGUAUAGAAUAGCGAGGACCGGUACGGCCGCCACUCGUGAAGAGAAAGGAGUGAUGUUCCGUAAUGG [Kazoo C5] ?
298

Also GGAUAGGACACAGGAUAUGGUAGUGAUGUUACCAAACUGGUUAAACAUGUCAGAAAACUGGCAUGACCAGAAGGGUGUCCUAUCG [FmnBX 27 C11+G75] ?
63.8

What do you have for UAUCCUCGCUGAAGGAGCGAGCAUGAAGCAGUGAUGUUCCGAGCGAGUGAUGUUCGCAUAGCUCAGGUAGGUCGCAGUGGGAUUU [Same State Arginie B GF 17] ?
749

Do the same for UGUGCUGUGUACUGUAAUGUUAUGCGGGAUACCAGAGUCUUUUUAUUCCCUUGGCAGCUUGAGUGAUGUUUGAUGCUGUUCUUGU [kiokmullin] please
301

And what about the sequence CAUGGUGCUCGCCAGUUGUGCGAACGGUGGGAGGAUAUGUCGCGAGACAGAAGGCCCAGUGAUGUUGGGCAGGCUCGUAGAUCGA [Mazadi] ?
113

Then what about the sequence ACGCUGGUGAAUAACACUAGCGAAUAAUUCCGAGGACCGGUACGGCCGCCACUCGGCUAACUGCGAGUGAUGUUCGAUAAUAAAA [Mat - Mod of OpenEnded 3 - D10] ?
158

Param item: AUCAUAUCUAGUCAGCCCAGUGAUGUUGGGCGAGGACCGGUACGGCCGCCACUCGCUUCGUUGCGGUGGCUGGCGUUACGACAAA [Inveusma]
142

Another sequence to look at: AAGUGAUGUUGUAGUGAUGUUGUGAUGUUGCAGGAUAUAUAGUGAUGUAGAAGGGUAAGUACUUAUUUUUUUUUUGAGUUAUGUU [crrczrmullin]
33

Likewise for UGACUGGACUGAAGGAGCGAGCGAGACAAAGUCUCGAAAUCCUAGUGAUGUUAGGAAAUAACUCAGGUAGGUCGCAGUCUAGUCU [ArgBS 9 #SwitchBubble #StaticStem] ?
152

Would you kindly repeat that for AAUUAAUACAGAAGGAGCGUGAAAUUAUCUAUUUUUUUUUUAGCUAGUGAUGUUAGCAUUUCACAGGUAGGUCGCUGUAUAUUUA [JR_SSArginiB_Sub009] ?
142

Lookup UCUUUACCGGGAAGGAGCGUGAAUGAGAAUGGAUAUAGUGAUGUUAUGUAUACGAACGAAUCGCAGGUAGGUCGCCCGGAUCCCU [SSArgB.aB]
316

Further, for ACAGGAAUCUUUGAUACCAGAACCCGUCUACCUCCAUCCUUGGAGCAUAGUGAUGUUGUGUUCCCUUGGCAGCAAUAGGGCACAU [theeternabot_exclusion_KL_Theo_B_34] ?
498

Okay, and ACGUAGUUCUAGGAUACCAGCCAAGAUGCCAGGACAAAAGUCCUGGCAGCCAGUGAUGUUGGCCCUUGGCAGCCUAGAACUACGA [Omei KL Theo B Exc B v9] ?
115

Now consider AUAGGAGUGAUGUUCCUUAGUUUCUCCGAUACCAGUAUGGAAACAUACCCUUGGCAGCGGGAAACCGCAGAUUAGGAAACUAGUC [Theophylline A K4 6] and answer again.
200

Moving on to the next sequence: AAGUGAUGUUGUAGUGAUGUUGUGAUGUUGCAGGAUAUAUAGUGAUGUAGAAGGGUAUGUUCAGUUUUUUUUUUUGAGUGUUGAU [szxmullin]
35.3

Now give it for AAUUUAUAUUUAUUCUUUAAAUGUUCAGAAGGAGCGUGAAUUAUCACAGGUAGGUCGCUGGGCUAGUGAUGUUGGCUAUAUACUA [whbob_Ex_Arginine_A_2t125] too.
186

Subsequent entry: AGAUCUGUAACAGAUACCAGAGGACGAUGAUCGAACAGUGAUGUUAUCUGUUAGUCGUCGCUCCCUUGGCAGCUGUUACAGAUCA [Omei KL Theo B SS B v4]
46.2

###

System: MS2 coat protein
Assay Comment: apparent KD of MS2 coat protein; designed switch direction (-1 OFF switch, 1 ON switch): 1; higher = weaker reporter binding
Study Conditions: input ligand: FMN 200 uM
The entries below are paired with their reported apparent KD of MS2 coat protein.
# unit: nM | format: bare number

Consider the reported apparent KD of MS2 coat protein for these sequences:
Sequence	Experimental System	apparent KD of MS2 coat protein, nM
GGUGCUGUCACAGGAUAUCAUGCGGAAAUCGCGUGAGAAGGGUGGACUCUGUCAUUCACGGAGGACAUGAGGAUCACCCAUGUG [SS NG10LRO20] (Eterna round: R96, puzzle: Same State NG 1)	MS2 coat protein	68.5
ACUAGAAACGGGCAAUAACACAUGAGGAUCACCCAUGUGACACAGGAUAUAACCAGAUCAGAAAGUUAGAAGGGUGAGCCCGCA [Edraed] (Eterna round: R96, puzzle: Same State NG 3)	MS2 coat protein	13.2

Please look at the following sequence next.
Notebook entry, MS2 coat protein assay: apparent KD of MS2 coat protein of GUUACAUGAGGAUCACCCAUGUAUGUGUGGGAGUAAGUGUCUUAGGAUAUCUAGUAUUUAAAUUAAGAGAAGGAAGAUUGUUGU [JMF's solution 9] (Eterna round: R96, puzzle: Same State NG 3) = ?
117

###

Test system: MS2 coat protein
Assay Comment: apparent KD of MS2 coat protein, switch ON state; designed switch direction (-1 OFF switch, 1 ON switch): 1; higher = weaker reporter binding
Study Conditions: FMN input: 0 or 200 uM; Eterna round: R93 (includes R88 designs)
Quick rule: apparent KD of MS2 coat protein of at least 20 nM means 1.0, below that means 0.0.

Decide: is the reported value of apparent KD of MS2 coat protein for CGGAGACAUGAGGAUCACCCAUGUGAGAAGAGGCGAGGAUAUCGAAAAAAAAAAAAAAAACGAGAAGGCGCGAGAC [salish99-SS1-011] equal to or greater than 20 nM?
1.0

Lookup AAACCACAUGAGGAUCACCCAUGUAAAAAUAUGGAAGGAUAUGCGAAAAGAAACAAAGAAGCAGAAGGUCUAAAAA [75%, Ex sub1, 20]
0.0

Same again, this time with AACAAUCUAUCUGAGGAUAUGUGUCAAAAGACAUGAGGAUCACCCAUGUAAAAACAUGGAAAAACACAGAAGGCAGAUAGAUUGA [SS2: 1149]
1.0

Queued: UAUUAUUACACGAAGGAUAUCGAUAAUAGUACAUGAGGAUCACCCAUGUUCAUAUCAUUUUAGUUCGAGAAGGUCGAGGGUGAAG [JR_SS002_Sub709]
1.0

Next sequence: AAAUAAAUGACUAAGGAUAUCUCAGAGAAAACAUGAGGAUCACCCAUGUAAUAAUAACAUGAGUGAGAGAAGGUAGUCAACAAAC [Same State 2.3 (Pariah 4 -changed stack on 9nt hairpin)]
1.0

Now consider AGGAAACAUGAGGAUCACCCAUGUAAAAAUAACACAGGAUAUGGAAACACGAAAGUGAAACCAGAAGGGUGAAAAG [77%, Mat - Mod of Eli, 16] and answer again.
0.0

# repeat for GGGAGGAAGAGAGAGGAUAUCCAAAGGAAAACAUGAGGAUCACCCAUGUAAAAGGUAGGAAAUUGGGAGAAGGCUCAAGAGACCG [salish99-ss2-057]
1.0

Now this one: AAAAGACAUGAGGAUCACCCAUGUAAAAACAUAGGAGGAUAUGUCAUGAAAAAAGACUUGACAGAAGGCCUUUGUC [SS1 - 49]
1.0
